Values compiled from patent US7405063B2.

System: C. tropicalis strain H5343
Assay: Toxicity tests of substrates (growth by absorbance at 600 nm, streak plates)
Assay type: cell-based
Details: substrate concentration 0.0313%, 48 h, 30° C., dilution in YPD 1:100
metric-name: ABS 600.0 nm
# answer = number (no unit)

>  <compound>
C=C(C)[C@@H]1CC=C(C)CC1 [S(−) limonene]

>  <measurement>
0.094

$$$$
>  <compound>
C=CCCCCCCCCCCCC

>  <measurement>
0.084

$$$$
>  <compound>
CCCCCC/C=C/CCCCCC [trans-7-tetradecene]

>  <measurement>
0.106

$$$$
>  <compound>
CCCCCCCCCCCCCCCCOC(C)=O [Hexadecyl acetate]

>  <measurement>
0.104

$$$$
>  <compound>
C=CCCCCCCCCCC [C12 a-Olefin]

>  <measurement>
0.119

$$$$

Kindly review the next compound as well.
CCCCCCCCCCCCCCCCOC(=O)CCCCCCCC [Hexadecyl pelargonate] yielded ABS 600.0 nm of 0.095

---

Entries and their measured Absorbance at 600 nm follow.
System: C. tropicalis
Assay: Toxicity tests of additional substrates (absorbance at 600 nm)
Assay type: cell-based
Settings: substrate concentration 0.6%, 24 hours, added without solvent
Procedure: Additional substrates were to be tested for bioconversion following a slightly different protocol than the one noted above in Example 3. […] C. tropicalis was grown in the presence of the substrate at three different concentrations and growth was monitored spectrophotometrically. […] After 24 hours incubation, the absorbance at 600 nm of the test and control flask cultures was determined, using uninoculated YPD broth as blank. Cultures were diluted so that the OD^600 nm measured between 0.15 and 0.3. […]
# answer = number (no unit)

Look over these answered cases.
>  <compound>
CCC1CCCCC1

>  <assay-system>
C. tropicalis

>  <measurement>
16.5

$$$$
>  <compound>
CCCCC(=O)C(C)C

>  <assay-system>
C. tropicalis

>  <measurement>
0.125

$$$$
>  <compound>
CC1CCCCC1

>  <assay-system>
C. tropicalis

>  <measurement>
0.16

$$$$

CCCCC(CC)C1OCCN1CCCC (stereo not shown) [3-Butyl-(ethylpentyl)oxazolidine, 3-Butyl-2(1-ethylpentyl)oxazolidine] yielded Absorbance at 600 nm of 1.18

---

Test system: C. tropicalis
Assay: Toxicity tests of additional substrates (absorbance at 600 nm)
Type: cell-based
Details: substrate concentration 0.1%, 24 hours, added without solvent
Entries and their measured Absorbance at 600 nm follow.
# answer = number (no unit)

Look over these answered cases.
>  <compound>
CCCCC(C(=O)O)C(=O)O

>  <Absorbance at 600 nm>
27.43

$$$$
>  <compound>
CCCC1CCCCC1

>  <Absorbance at 600 nm>
44.13

$$$$
>  <compound>
CCCCCCC(C)O (stereo not drawn)

>  <Absorbance at 600 nm>
0.250

$$$$
>  <compound>
C=COCCCCCCCCCCCC

>  <Absorbance at 600 nm>
20.43

$$$$
>  <compound>
C=CCCCCCCCCCCCCCC

>  <Absorbance at 600 nm>
38.99

$$$$
>  <compound>
CCCCCCOCCCCCC

>  <Absorbance at 600 nm>
12.85

$$$$
>  <compound>
CCCCC1CCCCC1

>  <Absorbance at 600 nm>
22.03

$$$$
>  <compound>
CCCCCCCCC(CCCCCC)C(=O)O (stereo not drawn)

>  <Absorbance at 600 nm>
27.73

$$$$

CCCCCCCCC(CO)CCCCCC (stereo not drawn) yielded Absorbance at 600 nm of 24.43

CCCCCCC(CO)CCCC (stereo not drawn) yielded Absorbance at 600 nm of 10.53

"C=CCCCCCCCCCCCCCCCC" yielded Absorbance at 600 nm of 34.93

CCCC[S+]([O-])CCCC [Butylsulfoxide, dibutylsulfoxide] yielded Absorbance at 600 nm of 15.63

"CCCCCCc1ccsc1" yielded Absorbance at 600 nm of 0.933

CCCCCCCCCCCCCCC(O)CO (stereo not drawn) yielded Absorbance at 600 nm of 3.103

"CCCCCOCCCCC" yielded Absorbance at 600 nm of 2.033

---

Tested on: C. tropicalis strain H5343
Assay: Toxicity tests of substrates (growth by absorbance at 600 nm, streak plates)
Format: cell-based
Details: substrate concentration 0.13%, 48 h, 30° C., dilution in YPD 1:100
metric-name: ABS 600.0 nm
# answer = number (no unit)

Look over these answered cases.
>  <molecule>
CCCCCCCCC(=O)CCCCCCCC

>  <ABS 600.0 nm>
0.103

$$$$
>  <molecule>
CCCCCCCCCCCCCCCCOC(=O)CCCCCCCC [Hexadecyl pelargonate]

>  <ABS 600.0 nm>
0.083

$$$$
>  <molecule>
C/C=C/CCCCCC [trans-2-nonene]

>  <ABS 600.0 nm>
0.066

$$$$

Kindly review the next molecule as well.
"C=C[C@](C)(O)CC[C@@H]1[C@@]2(C)CCCC(C)(C)[C@@H]2CC[C@@]1(C)O" yielded ABS 600.0 nm of 0.106

---

System: C. tropicalis strain H5343
Assay: Toxicity tests of substrates (growth by absorbance at 600 nm, streak plates)
Format: cell-based
Details: substrate concentration 1%, 48 h, 30° C., dilution in YPD 1:100
Entries and their measured ABS 600.0 nm follow.
# answer = number (no unit)

>  <molecule>
C=CCCCCCCCCCC [C12 a-Olefin]

>  <ABS 600.0 nm>
0.082

$$$$
>  <molecule>
C=C(C)[C@@H]1CC=C(C)CC1 [S(−) limonene]

>  <ABS 600.0 nm>
0.002

$$$$
>  <molecule>
C/C=C/CCCCCC [trans-2-nonene]

>  <ABS 600.0 nm>
0.000

$$$$
>  <molecule>
C=CCCCCCCCCCCCC [C14 a-Olefin, 1-tetradecene]

>  <ABS 600.0 nm>
0.087

$$$$
>  <molecule>
C=CCCCCCCCCCC [Dodecene]

>  <ABS 600.0 nm>
0.026

$$$$

The observed ABS 600.0 nm for CCCCC(CC)C(=O)O (centres unmarked) [2-Ethylhexanoic acid] when tested with C. tropicalis strain H5343 stands at 0.000

The observed ABS 600.0 nm for CCCCCCCC/C=C\CCCCCCCCO [HD-Ocenol, oleyl alcohol] when tested with C. tropicalis strain H5343 stands at 0.087

The observed ABS 600.0 nm for C=C(C)[C@H]1CC=C(C)CC1 [R(+) limonene] when tested with C. tropicalis strain H5343 stands at 0.000

The observed ABS 600.0 nm for CCCCCCCCC(CO)CCCCCC (centres unmarked) [2-Hexyl-1-decanol] when tested with C. tropicalis strain H5343 stands at 0.117

The observed ABS 600.0 nm for CCCCCCCCCC(CCCCCCC)C(=O)O (centres unmarked) [2-Heptylundecanoic acid] when tested with C. tropicalis strain H5343 stands at 0.268

The observed ABS 600.0 nm for CCCCCCCCCCCCCCCCOC(C)=O [Hexadecyl acetate] when tested with C. tropicalis strain H5343 stands at 0.155

The observed ABS 600.0 nm for CCCCCC#CCCCCC [6-Dodecyne] when tested with C. tropicalis strain H5343 stands at 0.066

The observed ABS 600.0 nm for CCCCCC/C=C/CCCCCC [trans-7-tetradecene] when tested with C. tropicalis strain H5343 stands at 0.095

The observed ABS 600.0 nm for C=C[C@](C)(O)CC[C@@H]1[C@@]2(C)CCCC(C)(C)[C@@H]2CC[C@@]1(C)O [Indu-Extrakt-sclareol, sclareol] when tested with C. tropicalis strain H5343 stands at 0.083

The observed ABS 600.0 nm for CCCCCCCCCCCCCCCCOC(=O)CCCCCCCC [Hexadecyl pelargonate] when tested with C. tropicalis strain H5343 stands at 0.080

The observed ABS 600.0 nm for CCCCCCCCCCCCN [Dodecyclamine, Dodecylamine] when tested with C. tropicalis strain H5343 stands at 0.000

The observed ABS 600.0 nm for CCCCCCC(O)CCCCCCCCCCC(=O)O (centres unmarked) [12-Hydroxystearic acid] when tested with C. tropicalis strain H5343 stands at 0.120

---

Test system: C. tropicalis strain H5343
Experiment: Toxicity tests of substrates (growth by absorbance at 600 nm, streak plates)
Type: cell-based
Conditions: substrate concentration 0.01563%, 48 h, 30° C., dilution in YPD 1:100
metric-name: ABS 600.0 nm
# answer = number (no unit)

>  <molecule>
CCCCCCCCCCCCO

>  <assay-system>
C. tropicalis strain H5343

>  <measurement>
0.000

$$$$
>  <molecule>
CCCCCCCCC(CO)CCCCCC (stereo not drawn)

>  <assay-system>
C. tropicalis strain H5343

>  <measurement>
0.120

$$$$
>  <molecule>
CCCCCC#CCCCCC

>  <assay-system>
C. tropicalis strain H5343

>  <measurement>
0.125

$$$$

C/C=C/CCCCCC [trans-2-nonene] yielded ABS 600.0 nm of 0.112

"C=CCCCCCCCCCCCC" yielded ABS 600.0 nm of 0.061

CCCCCCCCCCCCCCCCOC(C)=O [Hexadecyl acetate] yielded ABS 600.0 nm of 0.110
